System: HEK-293T
MEASUREMENT_DESCRIPTION: Multiplex assay against HEK293T
Type: toxicity, cell-based
ASSAY_SETUP: human, 24 h, 10 µM, compound concentration 10 uM, replicate 2
MEASURED_ATTRIBUTE: Population Fragmented Nuclei (%)
Answers are plain numbers, in %.

SMILES_DATA	QUANTITY_UNIT	Population Fragmented Nuclei (%)
COCC(=O)NC/C=C/c1ccc2ncnc(Nc3ccc(Oc4ccc(C)nc4)c(C)c3)c2c1	%	7
COc1ccc(S(=O)(=O)N(CCO)c2ccccc2CN(C)C/C=C/c2ccc(Cl)cc2)cc1.O=P(O)(O)O	%	15
COc1cc(N2CCN(C)CC2)ccc1Nc1ncc2c(n1)N(C)c1ccccc1C(=O)N2C	%	7
C=C1/C(=C\C=C2/CCC[C@]3(C)[C@@H]([C@H](C)/C=C/[C@H](C)C(C)C)CC[C@@H]23)C[C@@H](O)C[C@@H]1O	%	9
O=C(Nc1ccc(-c2ccnc(Nc3ccc(N4CCOCC4)cc3)n2)cc1)[C@@H]1CCCN1	%	7

Please report Population Fragmented Nuclei (%) for every entry that follows.
1. CCc1cccc(CC)c1NC(=O)c1nn(C)c2c1CCc1cnc(Nc3ccc(C(=O)NC4CCN(C)CC4)cc3OC(F)(F)F)nc1-2
2. Cc1ccc(C(=O)Nc2cccc(C(F)(F)F)c2)cc1Nc1nc(-c2cccnc2)nc2c1cnn2C
3. Cn1nc(C(F)(F)F)cc1-c1cnc(N2CCc3cc(S(=O)(=O)Nc4c(F)cc(Cl)cc4F)cc(N4CCCC4=O)c32)nc1

Out:
[6, 5, 26]

Values from ChEMBL document CHEMBL4689842
